molecular target: ALK protein in H3122 (EML4-ALK) cells (Homo sapiens); construct: EML4 (Echinoderm microtubule-associated protein-like 4, Q9HC35) fusion partner, variant 1; host or cells: NCI-H3122 lung adenocarcinoma cells; the other entry of the earlier key: EML4 (Q9HC35, Echinoderm microtubule-associated protein-like 4); experiment: Western blot of ALK protein level (degradation, DC50), ALK phosphorylation and downstream signaling in H3122 cells; format: cell-based; conditions: ALK protein degradation in H3122 cells
Sequence (Q9UM73 with tags, fused parts or gaps): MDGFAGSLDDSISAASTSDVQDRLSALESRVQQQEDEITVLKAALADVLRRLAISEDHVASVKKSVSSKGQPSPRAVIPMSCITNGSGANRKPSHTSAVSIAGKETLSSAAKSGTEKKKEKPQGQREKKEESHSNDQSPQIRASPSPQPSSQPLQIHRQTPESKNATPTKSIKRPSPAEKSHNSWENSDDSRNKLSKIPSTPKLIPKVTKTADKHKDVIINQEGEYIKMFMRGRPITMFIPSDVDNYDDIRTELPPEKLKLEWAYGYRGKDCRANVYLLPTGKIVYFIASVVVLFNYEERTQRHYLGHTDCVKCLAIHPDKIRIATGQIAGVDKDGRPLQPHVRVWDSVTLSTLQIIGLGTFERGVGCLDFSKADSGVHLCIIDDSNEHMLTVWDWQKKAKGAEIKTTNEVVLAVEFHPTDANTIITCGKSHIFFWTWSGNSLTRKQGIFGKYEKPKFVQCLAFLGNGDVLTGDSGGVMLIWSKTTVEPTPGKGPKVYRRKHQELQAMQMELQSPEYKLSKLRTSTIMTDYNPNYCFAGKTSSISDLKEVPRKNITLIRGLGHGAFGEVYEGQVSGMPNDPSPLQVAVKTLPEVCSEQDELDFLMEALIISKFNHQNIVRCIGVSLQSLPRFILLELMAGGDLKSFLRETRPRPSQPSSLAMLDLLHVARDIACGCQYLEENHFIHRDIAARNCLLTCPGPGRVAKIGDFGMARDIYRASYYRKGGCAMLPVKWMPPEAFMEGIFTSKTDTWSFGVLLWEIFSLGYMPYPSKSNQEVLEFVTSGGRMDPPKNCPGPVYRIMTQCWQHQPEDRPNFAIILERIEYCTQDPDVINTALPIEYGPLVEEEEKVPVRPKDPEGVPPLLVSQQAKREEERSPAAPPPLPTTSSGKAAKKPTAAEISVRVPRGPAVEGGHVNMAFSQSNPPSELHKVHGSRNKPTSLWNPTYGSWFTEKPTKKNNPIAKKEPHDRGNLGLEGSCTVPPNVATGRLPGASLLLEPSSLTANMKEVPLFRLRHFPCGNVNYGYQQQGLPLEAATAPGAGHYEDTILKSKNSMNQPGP
Collected DC50 values appear next to each entry.

// assay ALK protein in H3122 (EML4-ALK) cells (Homo sapiens), entry `COc1cc(N2CCC(NC(=O)CCOCCOCCOCCC(=O)N[C@H](C(=O)N3C[C@H](O)C[C@H]3C(=O)NCc3ccc(-c4scnc4C)cc3)C(C)(C)C)CC2)ccc1Nc1ncc(Cl)c(Nc2ccccc2P(C)(C)=O)n1` , DC50 value = 100 to 500 nM

// assay ALK protein in H3122 (EML4-ALK) cells (Homo sapiens), entry `COc1cc(N2CCN(C(=O)CCCC(=O)N[C@H](C(=O)N3C[C@H](O)C[C@H]3C(=O)NCc3ccc(-c4scnc4C)cc3)C(C)(C)C)CC2)ccc1Nc1ncc(Cl)c(Nc2ccccc2P(C)(C)=O)n1` , DC50 value = 20 to 100 nM

New cases:
// assay ALK protein in H3122 (EML4-ALK) cells (Homo sapiens), entry COc1cc(N2CCN(C(=O)CCNc3cccc4c3C(=O)N(C3CCC(=O)NC3=O)C4=O)CC2)ccc1Nc1ncc(Cl)c(Nc2ccccc2P(C)(C)=O)n1 (stereo not drawn) , DC50 value = 50 to 500 nM

* * *

molecular target: ALK protein in H3122 (EML4-ALK) cells (Homo sapiens); construct: EML4 (Echinoderm microtubule-associated protein-like 4, Q9HC35) fusion partner, variant 1; host or cells: NCI-H3122 lung adenocarcinoma cells; the other entry of the earlier key: EML4 (Q9HC35, Echinoderm microtubule-associated protein-like 4); assay: Western blot of ALK protein level (degradation, DC50), ALK phosphorylation and downstream signaling in H3122 cells; format: cell-based; conditions: ALK protein degradation in H3122 cells
Collected DC50 values appear next to each entry.

Consider COc1cc(N2CCC(NC(=O)CCNc3cccc4c3C(=O)N(C3CCC(=O)NC3=O)C4=O)CC2)ccc1Nc1ncc(Cl)c(Nc2ccccc2P(C)(C)=O)n1 (stereo not shown) [SIAIS151121] . Its measured DC50 is 100 to 500 nM

Consider COc1cc(N2CCC(N3CCN(C(=O)COCCOCC(=O)N[C@H](C(=O)N4C[C@H](O)C[C@H]4C(=O)NCc4ccc(-c5scnc5C)cc4)C(C)(C)C)CC3)CC2)ccc1Nc1ncc(Cl)c(Nc2ccccc2P(C)(C)=O)n1 [SIAIS164041] . Its measured DC50 is 10 to 500 nM

New cases:
Consider COc1cc(N2CCN(C(=O)CCCNc3cccc4c3C(=O)N(C3CCC(=O)NC3=O)C4=O)CC2)ccc1Nc1ncc(Cl)c(Nc2ccccc2P(C)(C)=O)n1 (stereo not shown) [SIAIS1197059] . Its measured DC50 is 1 to 50 nM

Consider Cc1cc(Nc2ncc(Cl)c(Nc3ccccc3S(=O)(=O)C(C)C)n2)c(OC(C)C)cc1C1CCN(C(=O)CNc2cccc3c2C(=O)N(C2CCC(=O)NC2=O)C3=O)CC1 (stereo not shown) [SIAIS151037] . Its measured DC50 is 50 to 100 nM

Consider COc1cc(N2CCN(C(=O)CCCCCCNc3cccc4c3C(=O)N(C3CCC(=O)NC3=O)C4=O)CC2)ccc1Nc1ncc(Cl)c(Nc2ccccc2P(C)(C)=O)n1 (stereo not shown) [SIAIS1197077] . Its measured DC50 is 50 to 500 nM

Consider COc1cc(N2CCC(N3CCN(C(=O)CCOCCOCCNc4cccc5c4C(=O)N(C4CCC(=O)NC4=O)C5=O)CC3)CC2)ccc1Nc1ncc(Cl)c(Nc2ccccc2P(C)(C)=O)n1 (stereo not shown) [SIAIS164008] . Its measured DC50 is 10 to 50 nM
